Measured abundance fitness by item
B1: Chromodomain-helicase-DNA-binding protein 4, residues 444 to 496; numbered along this chain, Q14839 (parent)
chain: EDDHHMEFCRVCKDGGELLCCDTCPSSYHIHCLNPPLPEIPNGEWLCPRCTCP

Variants of: B1
Assay: abundance fitness (aPCA) (normalised: wild type 0, dead -1); higher = more abundant; growth selection in yeast, the domain comes from the species named
Settings: Homo sapiens

Below, 5 variants whose answers are already recorded.
variant_identifier=E1T measurement_kind="abundance fitness" measured_value=-0.221
variant_identifier=S26W measurement_kind="abundance fitness" measured_value=-0.11
variant_identifier=C21I measurement_kind="abundance fitness" measured_value=-0.853
variant_identifier=C20R measurement_kind="abundance fitness" measured_value=0.13
variant_identifier=T23E measurement_kind="abundance fitness" measured_value=0.047

Reported abundance fitness of D14T : -0.1
